Target: Tyrosine-protein kinase BTK (Homo sapiens, UniProt Q06187)
Sequence (Q06187 whole entry, the tested form may be a part): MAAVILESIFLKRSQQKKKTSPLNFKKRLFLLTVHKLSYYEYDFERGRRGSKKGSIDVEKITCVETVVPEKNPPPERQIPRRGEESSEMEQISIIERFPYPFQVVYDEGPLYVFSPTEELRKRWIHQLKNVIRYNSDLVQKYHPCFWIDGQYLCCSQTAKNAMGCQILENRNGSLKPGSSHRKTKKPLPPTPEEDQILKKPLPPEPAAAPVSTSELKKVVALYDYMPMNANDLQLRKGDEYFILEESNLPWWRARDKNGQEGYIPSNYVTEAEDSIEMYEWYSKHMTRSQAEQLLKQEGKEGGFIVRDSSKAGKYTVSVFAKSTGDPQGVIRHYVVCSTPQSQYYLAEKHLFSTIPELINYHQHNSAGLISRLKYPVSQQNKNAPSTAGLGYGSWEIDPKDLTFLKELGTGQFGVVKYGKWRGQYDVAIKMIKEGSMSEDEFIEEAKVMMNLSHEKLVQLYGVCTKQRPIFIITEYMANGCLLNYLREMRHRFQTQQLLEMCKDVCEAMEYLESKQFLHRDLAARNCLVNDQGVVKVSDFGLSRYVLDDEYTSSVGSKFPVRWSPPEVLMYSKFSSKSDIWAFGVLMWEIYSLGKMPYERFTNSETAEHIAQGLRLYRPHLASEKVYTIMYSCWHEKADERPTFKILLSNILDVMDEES
Assay: Inhibition of human recombinant C-terminal polyhistidine tagged BTK (1 to 659 residues)-mediated synthetic peptide substrate phosphorylation expressed in baculovirus-infected insect cells
assayMetric: pKi
Keep in mind that pKi stands for -log10 of concentration in molar terms.

GET /values?readout=pKi&system=Tyrosine-protein kinase BTK (Homo sapiens, UniProt Q06187)&item= `C[C@H]1CN(c2ccc(Nc3cc(-c4cc(F)cc(N5CCn6c(cc7c6CCCC7)C5=O)c4CO)cn(C)c3=O)nc2)CCN1C`
9.49

And for `CC(=O)N1CCN(c2ccc(Nc3cc(-c4ccnc(N5CCn6c(cc7c6CC(C)(C)C7)C5=O)c4CO)cn(C)c3=O)nc2)CC1` ?
8.74

And for `C[C@@H]1CN(c2ccc(Nc3cc(-c4cc(F)cc(N5CCn6c(cc7c6CCCC7)C5=O)c4CO)cn(C)c3=O)nc2)CCN1C` ?
9.37

And for `COCCCN1CCN(c2ccc(Nc3cc(-c4ccnc(N5CCn6c(cc7c6CC(C)(C)C7)C5=O)c4CO)cn(C)c3=O)nc2)CC1` ?
9.00

Attribution: ChEMBL document CHEMBL4020831
